Origin of the recorded values: patent US10544143B2

target: human TLR9 (Homo sapiens (Human), UniProt Q9NR96); assay: TLR9 inhibition reporter assay (HEK-Blue SEAP); details: read-out: TLR9 IC50; HEK-Blue cells overexpressing human TLR9, SEAP reporter, ODN2006 5 nM
Sequence (Q9NR96 26-1032): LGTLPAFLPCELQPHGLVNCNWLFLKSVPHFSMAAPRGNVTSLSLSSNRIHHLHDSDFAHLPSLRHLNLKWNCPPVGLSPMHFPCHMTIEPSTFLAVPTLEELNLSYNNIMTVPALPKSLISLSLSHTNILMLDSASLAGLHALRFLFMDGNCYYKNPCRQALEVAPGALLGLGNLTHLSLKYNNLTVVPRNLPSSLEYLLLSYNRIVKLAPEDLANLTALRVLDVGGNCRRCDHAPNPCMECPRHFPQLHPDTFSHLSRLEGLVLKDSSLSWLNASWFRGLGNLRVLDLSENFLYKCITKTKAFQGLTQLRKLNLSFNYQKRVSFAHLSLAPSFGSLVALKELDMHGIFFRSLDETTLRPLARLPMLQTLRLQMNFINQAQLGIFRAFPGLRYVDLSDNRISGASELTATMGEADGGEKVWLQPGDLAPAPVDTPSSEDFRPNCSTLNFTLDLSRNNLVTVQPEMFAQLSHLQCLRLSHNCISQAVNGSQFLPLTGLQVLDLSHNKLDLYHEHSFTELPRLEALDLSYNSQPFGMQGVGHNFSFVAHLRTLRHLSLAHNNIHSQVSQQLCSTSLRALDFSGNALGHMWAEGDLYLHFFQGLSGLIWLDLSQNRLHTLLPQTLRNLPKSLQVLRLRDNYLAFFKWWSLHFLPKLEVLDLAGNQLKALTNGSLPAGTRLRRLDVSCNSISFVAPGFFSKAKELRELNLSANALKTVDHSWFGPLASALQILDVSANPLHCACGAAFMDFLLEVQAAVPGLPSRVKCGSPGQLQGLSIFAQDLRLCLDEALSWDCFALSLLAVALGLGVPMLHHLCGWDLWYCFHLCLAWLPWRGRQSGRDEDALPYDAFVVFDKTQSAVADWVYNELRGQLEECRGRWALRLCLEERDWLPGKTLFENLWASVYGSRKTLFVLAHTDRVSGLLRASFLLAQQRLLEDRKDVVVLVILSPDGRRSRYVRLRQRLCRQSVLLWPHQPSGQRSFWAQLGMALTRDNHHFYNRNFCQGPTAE
We begin with a simple list: items and their reported IC50.

Worked examples, 3 molecules total:
{"columns": ["molecule", "target-desc", "meas-value"],
 "data": [
  ["Cc1c(-c2[nH]c3ccc(N4CCN(CCC(N)=O)[C@@H](C)C4)nc3c2C(C)C)cn2ncnc2c1C", "human TLR9 (Homo sapiens (Human), UniProt Q9NR96)", "18.1 µM"],
  ["Cc1c(-c2[nH]c3ccc(C4CCNCC4)nc3c2C(C)C)cn2ncnc2c1C", "human TLR9 (Homo sapiens (Human), UniProt Q9NR96)", "0.238 µM"],
  ["Cc1c(-c2[nH]c3ccc(C4CCC(N(CC#N)CC(=O)N(C)C)CC4)nc3c2C(C)C)cn2ncnc2c1C (stereo not drawn) [Example 459]", "human TLR9 (Homo sapiens (Human), UniProt Q9NR96)", "2.79 µM"]
]}

Query block: Report IC50 for Cc1c(-c2[nH]c3ccc(C4CCC(NC5CCS(=O)(=O)C5)CC4)nc3c2C(C)C)cn2ncnc2c1C (stereo not drawn) [Example 465] please.
Result block: 5.66 µM

Query block: Entry to check: Cc1c(-c2[nH]c3ccc(C4CCC(N(C)CC(N)=O)CC4)nc3c2C(C)C)cn2ncnc2c1C (stereo not drawn) [Example 501]
Result block: 9.55 µM

* * *

target: human TLR9 (Homo sapiens (Human)); test: TLR9 inhibition reporter assay (HEK-Blue SEAP); details: read-out: TLR9 IC50; HEK-Blue cells overexpressing human TLR9, ODN2006 5 nM stimulation, SEAP reporter
The class of a record is decided solely by its measured IC50; consult bottom end = under 900 nM, midrange = from 900 nM up to 5000 nM, top end = 5000 nM and over

{"columns": ["molecule", "group"],
 "data": [
  ["COc1cc(-c2[nH]c3ccc(C4CCC(N5CCC[C@H]5CO)CC4)nc3c2C(C)C)cn2ncnc12 (some centres unmarked) [Example 197]", "bottom end"]
]}

We next turn to a different molecule, shown below.
Query block: Please classify: COc1cc(-c2[nH]c3ccc(C4CCC(N(C)Cc5cnc(C)cn5)CC4)nc3c2C(C)C)cn2ncnc12 (centres unmarked) [Example 202]
Result block: midrange

* * *

molecular target: human TLR9 (Homo sapiens (Human), UniProt Q9NR96); assay: TLR9 inhibition reporter assay (HEK-Blue SEAP); settings: read-out: TLR9 IC50; HEK-Blue human TLR9 cells, ODN2006 5 nM;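 further: SEAP driven by an IFN-β minimal promoter with NF-κB and AP-1 sites, read after 22 h, compounds dosed 0.05 nM–50 µM, inhibition scaled between agonist plus DMSO and reference-inhibitor wells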
pIC50: −log10 of the molar value.
Lab note: compare pIC50 against 5. Equal or greater, write true. Smaller, write false.

Solved cases below.
{"columns": ["compound", "group"],
 "data": [
  ["Cc1c(-c2[nH]c3ccc(C4CCC(N5CC6(CCS6(=O)=O)C5)CC4)nc3c2C(C)C)cn2ncnc2c1C (centres unmarked) [Example 1077]", "false"],
  ["Cc1c(-c2[nH]c3ccc(N4[C@H](C)CN(C(=O)CCN(C)C)C[C@H]4C)nc3c2C(C)C)cn2ncnc2c1C [Example 864]", "true"],
  ["Cc1c(-c2[nH]c3ccc(N4C[C@@H](C)N(C(=O)CN(C(C)C)C(C)C)C[C@@H]4C)nc3c2C(C)C)cn2ncnc2c1C [Example 910]", "true"],
  ["Cc1c(-c2[nH]c3ccc(N4CC5(CN(CCC(N)=O)C5)C4)nc3c2C(C)C)cn2ncnc2c1C [Example 1005]", "true"],
  ["Cc1c(-c2[nH]c3ccc(N4CCN(C(=O)CN5CC6(COC6)C5)[C@@H](C)C4)nc3c2C(C)C)cn2ncnc2c1C [Example 900]", "false"],
  ["Cc1c(-c2[nH]c3ccc(C4CCC(N5CC(C(=O)N(C)C)C5)CC4)nc3c2C(C)C)cn2ncnc2c1C (centres unmarked) [Example 1047]", "true"]
]}

Query block: Reported pIC50 reaches at least 5 for COc1cc(-c2[nH]c3ccc(C4CCC(N5CC6(CCO6)C5)CC4)nc3c2C(C)C)cn2ncnc12 (centres unmarked) [Example 1075] ?
Result block: true

Query block: Entry to check: COc1cc(-c2[nH]c3ccc(C4CCC(N5CCC6(COC6)C5)CC4)nc3c2C(C)C)cn2ncnc12 (centres unmarked) [Example 1073]
Result block: true

Query block: Entry to check: Cc1c(-c2[nH]c3ccc(C4CCC(N5CC6(CCO6)C5)CC4)nc3c2C(C)C)cn2ncnc2c1C (centres unmarked) [Example 1055]
Result block: true

Query block: Entry to check: Cc1c(-c2[nH]c3ccc(C4CC5(C4)CN(CCCS(C)(=O)=O)C5)nc3c2C(C)C)cn2ncnc2c1C [Example 1030]
Result block: true

Query block: Entry to check: CNC1CCC(c2ccc3[nH]c(-c4cn(C)c5ncncc45)c(C(C)C)c3n2)CC1 (centres unmarked) [Example 1078]
Result block: false

Query block: Entry to check: Cc1c(-c2[nH]c3ccc(N4C[C@H]5C[C@@H](C4)N5)nc3c2C(C)C)cn2ncnc2c1C [Example 985]
Result block: true

Query block: Entry to check: Cc1c(-c2[nH]c3ccc(N4C[C@H](C)N(CCC(N)=O)C[C@H]4C)nc3c2C(C)C)cn2ncnc2c1C [Example 847]
Result block: false

Query block: Entry to check: Cc1c(-c2[nH]c3ccc(N4CCN(C(=O)CN(C)C5COC5)CC4)nc3c2C(C)C)cn2ncnc2c1C [Example 967]
Result block: false

* * *

We begin with a simple list: items and their reported IC50.
target: UniProtKB Q9NR96; assay: TLR9 inhibition reporter assay (HEK-Blue SEAP); conditions: read-out: TLR9 IC50; HEK-Blue cells overexpressing human TLR9, SEAP reporter, ODN2006 5 nM

{"columns": ["compound", "IC50"],
 "data": [
  ["Cc1c(-c2[nH]c3ccc(C4CN(CCS(C)(=O)=O)CCO4)nc3c2C(C)C)cn2ncnc2c1C (stereo not drawn) [Example 674]", "> 50 µM"]
]}

Query block: Report IC50 for CCN(CCS(C)(=O)=O)C1CCC(c2nc3c(C(C)C)c(-c4cn5ncnc5c(C)c4C)[nH]c3cc2F)CC1 (stereo not drawn) [Example 510] please.
Result block: > 50 µM

Query block: Entry to check: Cc1c(-c2[nH]c3ccc(C4CCC(N(C)Cc5ncccn5)CC4)nc3c2C(C)C)cn2ncnc2c1C (stereo not drawn) [Example 417]
Result block: 9.5 µM

Query block: Entry to check: Cc1c(-c2[nH]c3ccc(C4CCC(N(CCO)CC5(S(C)(=O)=O)CC5)CC4)nc3c2C(C)C)cn2ncnc2c1C (stereo not drawn) [Example 482]
Result block: > 50 µM

Query block: Entry to check: Cc1c(-c2[nH]c3ccc(C4CCC(N5CC(C#N)C5)CC4)nc3c2C(C)C)cn2ncnc2c1C (stereo not drawn) [Example 434]
Result block: 7.43 µM

Query block: Entry to check: COc1cc(-c2[nH]c3cc(C)c(C(=O)N(C)CCC(F)(F)F)nc3c2C(C)C)cn2ncnc12 [Example 734]
Result block: > 50 µM

* * *

target: human TLR9 (Homo sapiens (Human)); experiment: TLR9 inhibition reporter assay (HEK-Blue SEAP); details: read-out: TLR9 IC50; HEK-Blue cells overexpressing human TLR9, ODN2006 5 nM stimulation, SEAP reporter
We begin with a simple list: items and their reported pIC50.
Just the number, please; pIC50 means minus log10 of the concentration in mol/L.

{"columns": ["compound", "pIC50"],
 "data": [
  ["CC(C)c1c(-c2cn(C)c3ncncc23)[nH]c2ccc(C3CCC(NCC(=O)N(C)C)CC3)nc12 (stereo not shown)", 5.91],
  ["CC(C)c1c(-c2cc(CO)c3ncnn3c2)[nH]c2ccc(N3CCC(NCC4(C)COC4)CC3)nc12", 5.20]
]}

Query block: Report pIC50 for COc1cc(-c2[nH]c3ccc(N4CCN(CCC(F)(F)F)CC4)nc3c2C(C)C)cn2ncnc12 please.
Result block: 4.45

Query block: Entry to check: CCn1cc(-c2[nH]c3ccc(C4CCC(N5CC6(COC6)C5)CC4)nc3c2C(C)C)c2cccnc21 (stereo not shown) [Example 290]
Result block: 6.37

Query block: Entry to check: COc1cc(-c2[nH]c3cc(C)c(C4CCC(N(C)Cc5ncn(C)n5)CC4)nc3c2C(C)C)cn2ncnc12 (stereo not shown) [Example 333]
Result block: 5.84

Query block: Entry to check: Cc1cc(-c2[nH]c3ccc(C4CCC(NC5COC5)CC4)nc3c2C(C)C)cn2ncnc12 (stereo not shown) [Example 284]
Result block: 5.39

Query block: Entry to check: Cc1c(-c2[nH]c3ccc(N4CC(N(C)C)C4)nc3c2C(C)C)cn2ncnc2c1C
Result block: 5.00

Query block: Entry to check: Cc1c(-c2[nH]c3ccc(N4CCC(N(C)Cc5cn(C)nn5)CC4)nc3c2C(C)C)cn2ncnc2c1C
Result block: 5.20

Query block: Entry to check: Cc1cnc(CNC2CCC(c3ccc4[nH]c(-c5cn(C)c6ncccc56)c(C(C)C)c4n3)CC2)cn1 (stereo not shown) [Example 207]
Result block: 6.60

Query block: Entry to check: CC(C)c1c(-c2cn(C)c3ncccc23)[nH]c2ccc(N3CCC(N(CC#N)CC#N)CC3)nc12
Result block: 4.79
